Origin of measurements: patent US9738932B2

I'd appreciate it if you could supply IL13RA1 (210904_s_at) mRNA expression, Avg fold changes vs control values for the items below.
# System: mRNA expression in cardiovascular tissues
# ASSAY NOTES: Affymetrix GeneChip mRNA expression profiling of monkey tissues (iliac vein, pulmonary vein, aorta, carotid artery, heart) after two-week oral-gavage treatment
# ASSAY CONDITIONS: iliac vein; group average (Vioxx without A60055)
One number for each entry, in fold.

// below: answered molecules
O=C(O)Cc1ccccc1Nc1c(Cl)cccc1Cl : 0.9
CS(=O)(=O)c1ccc(C2=C(c3ccccc3)C(=O)OC2)cc1 : 1.1
Cc1ccc(-c2cc(C(F)(F)F)nn2-c2ccc(S(N)(=O)=O)cc2)cc1 : 0.9

In the following, a different molecule is considered.
INPUT: Hi! What's the reported IL13RA1 (210904_s_at) mRNA expression, Avg fold changes vs control for `Cc1ccc(Nc2c(F)cccc2Cl)c(CC(=O)O)c1` on mRNA expression in cardiovascular tissues?
OUTPUT: 1.1
